These entries and their values trace back to patent US12534450B2.

// pIC50 lookup, one value per entry
# MEASURED TARGET: PD-1/PD-L1 PPI (Homo sapiens)
# Sequence (Q9NZQ7 19-238 limits assumed): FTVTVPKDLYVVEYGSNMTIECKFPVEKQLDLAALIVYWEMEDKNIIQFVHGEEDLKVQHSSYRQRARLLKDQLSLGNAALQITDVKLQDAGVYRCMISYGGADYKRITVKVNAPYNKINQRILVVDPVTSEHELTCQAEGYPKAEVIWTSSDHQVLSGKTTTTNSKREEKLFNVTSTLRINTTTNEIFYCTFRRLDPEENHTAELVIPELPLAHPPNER
# EXPERIMENTAL DETAILS: PDL1/PD1 Binding Assay
# TEST CONDITIONS: PDL1-6×His 0.3 nM, PD1-Fc-Avi-Biotin 2.5 nM, Acceptor/Donor beads, Envision reader
pIC50: −log10 of the molar value.

Sample records with pIC50:
COCCOc1nc(-c2cccc(-c3cccc(NC(=O)c4cn(C)c(=O)n(C)c4=O)c3C)c2Cl)cc2c1[C@H](NC[C@@H]1CCC(=O)N1)CC2 (single isomer, unassigned)	≥ 8.00
CCOC(=O)C1CN([C@@H]2CCc3cc(-c4cccc(-c5cccc(NC(=O)c6cn(C)c(=O)n(C)c6=O)c5Cl)c4Cl)nc(OC)c32)C1 (single isomer, unassigned)	6.00 to 7.00
COc1nc(-c2cccc(-c3cccc(NC(=O)c4cn(C)c(=O)n(C)c4=O)c3C)c2Cl)cc2c1[C@H](NC[C@H]1CCC(=O)N1)CC2 (single isomer, unassigned)	≥ 8.00
COc1nc(-c2cccc(-c3cccc(NC(=O)c4cn(C)c(=O)n(C)c4=O)c3Cl)c2F)cc2c1[C@H](NC[C@@H]1CCC(=O)N1)CC2	≥ 8.00

Value of pIC50 reported for the molecule `CCOC(=O)N(C[C@@H]1CCC(=O)N1)[C@H]1CCc2cc(-c3cccc(-c4cccc(NC(=O)c5cn(C)c(=O)n(C)c5=O)c4C)c3Cl)nc(OC)c21` is ≥ 8.00

###

# MEASURED TARGET: PD-1/PD-L1 PPI (Homo sapiens)
# EXPERIMENTAL DETAILS: PDL1/PD1 Binding Assay
# TEST CONDITIONS: PDL1-6×His 0.3 nM, PD1-Fc-Avi-Biotin 2.5 nM, Acceptor/Donor beads, Envision reader
pIC50: −log10 of the molar value.
pIC50 values for the compounds below.

COc1nc(-c2cccc(-c3cccc(NC(=O)c4cn(C)c(=O)n(C)c4=O)c3Cl)c2F)cc2c1[C@@H](NC[C@@H]1CCC(=O)N1)CC2 [Compound A-7]	≥ 8.00
COc1nc(-c2cccc(-c3cccc(NC(=O)c4cn(C)c(=O)n(C)c4=O)c3Cl)c2Cl)cc2c1[C@@H](NC[C@@H]1CNC(=O)C1)CC2 (single isomer, unassigned) [Compound A-135]	≥ 8.00
COc1nc(-c2cccc(-c3cccc(Nc4ncnc5cccnc45)c3Cl)c2Cl)cc2c1[C@@H](NC[C@@H]1CCC(=O)N1)CC2 [Compound B-2]	≥ 8.00
COc1nc(-c2cccc(-c3cccc(NC(=O)c4cn(C)c(=O)n(C)c4=O)c3Cl)c2Cl)cc2c1C(N1CC3(CCNC3)C1)CC2 (stereo not drawn) [Compound G-1]	≥ 8.00
COc1nc(-c2cccc(-c3cccc(NC(=O)c4cn(C)c(=O)n(C)c4=O)c3C)c2C)cc2c1[C@@H](N1CC(O)C1)CC2 (single isomer, unassigned) [Compound A-79]	7.00 to 8.00

Value of pIC50 reported for the compound COc1nc(-c2cccc(-c3cccc(NC(=O)c4nn(C)c(=O)n(C)c4=O)c3Cl)c2Cl)cc2c1[C@@H](N[C@@H]1CCOC[C@H]1O)CC2 (single isomer, unassigned) [Compound A-93] is ≥ 8.00
